The origin of these recorded values is PubChem BioAssay (EPA / NIEHS).

assay: BSK_SAg_Proliferation: Cell Proliferation Assessment in the BioMAP Diversity Plus: SAg Assay (AID 2283095); conditions: primary human HUVEC with PBMC;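 further: relative cell number as total protein by SRB absorbance in sub-confluent culture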
Calls of active or inactive are those of the source. How the source made its calls: active means hit-call score of the fitted dose curve at least 0.9, where 1 is the maximum; inactive means score below 0.9.
Outcome codes: active, inactive

1) O=[N+]([O-])c1ccc(Nc2ccccc2)cc1 : inactive
2) OCCN(CCO)CCO : inactive
3) O=C(O)COc1cc(Cl)c(Cl)cc1Cl : inactive
4) Cc1ccccc1OP(=O)(Oc1ccccc1)Oc1ccccc1 : inactive
5) O=C(N[C@H]1CN2CCC1CC2)c1ccc2c(c1)OCCO2 : inactive
6) Oc1c(Br)cc(Br)cc1Br : active
7) Clc1cccc(Cl)c1 : inactive
8) Oc1cc(Cl)c(Cl)cc1Cl : active
9) c1ccc2sc(SNC3CCCCC3)nc2c1 : active
10) O=C1C=CC(=O)c2ccccc21 : active
11) Oc1ccc(Cc2ccc(O)cc2)cc1 : inactive
12) CCOP(=S)(OCC)SCS(=O)(=O)C(C)(C)C : inactive
13) CC(C=O)Cc1ccc2c(c1)OCO2 (configuration not stated) : inactive
14) NC(=O)CCl : inactive
15) CCC(C)(C#N)N=NC(C)(C#N)CC (configuration not stated) : inactive
16) CCOC(=O)CCN(SN(C)C(=O)Oc1cccc2c1OC(C)(C)C2)C(C)C : active
17) CC(C)(C)c1cc([N+](=O)[O-])cc(C(C)(C)C)c1O : inactive
18) C#CCOC(=O)/C=C(C)/C=C/CC(C)CCCC(C)C (configuration not stated) : inactive
19) CC(C)N(C(=O)CCl)c1ccccc1 : active
20) Cc1cc(Cl)ccc1OC(C)C(=O)O (configuration not stated) : inactive
21) Cc1ccc(OP(=O)(Oc2ccc(C)cc2C)Oc2ccc(C)cc2C)c(C)c1 : active
22) O=C(Cc1ccccc1)OCCc1ccccc1 : inactive
23) C[C@]12CC[C@@H](O)C[C@@H]1CC[C@@H]1[C@@H]2CC[C@]2(C)C(=O)CC[C@@H]12 : inactive
24) CC(C)=CC1C(C(=O)OCc2cccc(Oc3ccccc3)c2)C1(C)C (configuration not stated) : active
25) O=C(O)C1(c2ccc3c(c2)OC[C@H](Cc2ccc(-c4ccccc4)cc2)[C@H]3O)CCCC1 : active
26) CCN(CC)C(=O)C(Cl)=C(C)OP(=O)(OC)OC : inactive
27) Cc1cc(C(C)(C)c2ccc(O)c(C)c2)ccc1O : active

----------
Target: human Dopamine Transporter (DAT), SLC6A3 (gene 6531) (UniProt Q01959)
Sequence (Q01959 whole entry, looked up): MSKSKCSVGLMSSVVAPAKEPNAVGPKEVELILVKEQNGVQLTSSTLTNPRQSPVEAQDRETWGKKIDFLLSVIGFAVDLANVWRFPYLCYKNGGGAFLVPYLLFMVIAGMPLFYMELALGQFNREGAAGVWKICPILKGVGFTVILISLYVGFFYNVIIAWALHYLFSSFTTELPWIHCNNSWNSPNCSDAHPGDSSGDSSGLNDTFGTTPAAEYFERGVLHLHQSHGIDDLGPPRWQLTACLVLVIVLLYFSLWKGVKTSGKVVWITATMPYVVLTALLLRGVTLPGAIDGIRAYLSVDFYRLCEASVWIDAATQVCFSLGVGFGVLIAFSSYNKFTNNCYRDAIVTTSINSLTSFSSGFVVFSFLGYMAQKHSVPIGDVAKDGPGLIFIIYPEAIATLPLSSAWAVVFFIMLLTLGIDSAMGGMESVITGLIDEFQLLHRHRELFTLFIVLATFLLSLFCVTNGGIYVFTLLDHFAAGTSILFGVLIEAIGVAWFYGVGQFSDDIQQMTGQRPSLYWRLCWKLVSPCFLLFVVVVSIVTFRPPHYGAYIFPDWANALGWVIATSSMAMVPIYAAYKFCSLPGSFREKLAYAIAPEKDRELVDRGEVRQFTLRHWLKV
Experiment: NVS_TR_hDAT: NovaScreen (NVS) Transporter Assay for human Dopamine Transporter (DAT) (AID 2283374);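 further: activity means loss of bound radioligand signal relative to DMSO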
Protocol: NVS_TR_hDAT is a biochemical, single-readout assay that uses extracted gene-proteins in a cell-free assay. Measurements were taken 1 hour after chemical dosing in a 96-well plate.NVS_TR_hDAT is one of one assay component(s) measured or calculated from the NVS_TR_hDAT assay. […] This assay endpoint, NVS_TR_hDAT, was analyzed in the positive analysis fitting direction relative to DMSO as the negative control and baseline of activity. […]
Results filed as inconclusive are left out. Activity calls are given as the source filed them. How the source made its calls: active means hit-call score of the fitted dose curve at least 0.9, where 1 is the maximum; inconclusive means response in the unintended direction; inactive means score below 0.9.
Outcome codes: 1 for active, 0 for inactive

1. CC(C)(C)c1ccccc1O : 0
2. O=[N+]([O-])c1ccc(Nc2ccccc2)cc1 : 1
3. Oc1ccc(Cc2ccc(O)cc2)cc1 : 1
4. CC(C)=CC1C(C(=O)OCc2cccc(Oc3ccccc3)c2)C1(C)C (stereo not drawn) : 1
5. Cc1ccccc1OP(=O)(Oc1ccccc1)Oc1ccccc1 : 1
6. CCCCCCCCCCCCc1cccc(S(=O)(=O)O)c1 : 1
7. Cc1ccc(OP(=O)(Oc2ccc(C)cc2C)Oc2ccc(C)cc2C)c(C)c1 : 1
8. CC(C)N(C(=O)CCl)c1ccccc1 : 1
